system: Human immunodeficiency virus 1; test: Antiviral activity against HIV1 infected in GFP expressing human MT4 cells assessed as inhibition of viral replication after 24 hrs in presence of 50% normal human serum; type: functional, organism-based; settings: Human immunodeficiency virus 1, MT4, 24 h
Parameter: pEC50. Scope: all listed entries.
Here pEC50 is given on a logarithmic scale as minus log10 of the concentration in mol/L.

# count of solved cases: 3
| Mol | Measured Target | Observed Property | Reported Value |
| --- | --- | --- | --- |
| COC(=O)N[C@H](C(=O)N[C@@H](Cc1ccccc1)[C@@H](O)CN(Cc1ccc(-c2ccccn2)cc1)NC(=O)[C@@H](NC(=O)OC)C(C)(C)C)C(C)(C)C | Human immunodeficiency virus 1 | pEC50 | 7.92 |
| C[C@@H]1CNC[C@H](CCc2c(F)cccc2NC(=O)CC(c2ccc(F)cc2)c2ccc(F)cc2)N1S(=O)(=O)c1ccccc1 | Human immunodeficiency virus 1 | pEC50 | 7.15 |
| N[C@H](C(=O)Nc1cncc(F)c1CC[C@H]1CN[C@@H]2CCCS(=O)(=O)N1C2)[C@@H](c1ccc(Cl)cc1)c1cc(F)cc(F)c1 | Human immunodeficiency virus 1 | pEC50 | 8.55 |

Consider the record given below.
## Input Please look up its pEC50: N[C@H](C(=O)Nc1cncc(F)c1CC[C@@H]1CN[C@H](COC(=O)NCC(F)(F)F)CO1)[C@@H](c1ccc(Cl)cc1)c1cc(F)cc(F)c1
## Output 7.57
